# testedTarget: T1, corticotropin releasing factor 2 receptor
# T1 sequence (Q13324 whole entry, species assumed, looked up): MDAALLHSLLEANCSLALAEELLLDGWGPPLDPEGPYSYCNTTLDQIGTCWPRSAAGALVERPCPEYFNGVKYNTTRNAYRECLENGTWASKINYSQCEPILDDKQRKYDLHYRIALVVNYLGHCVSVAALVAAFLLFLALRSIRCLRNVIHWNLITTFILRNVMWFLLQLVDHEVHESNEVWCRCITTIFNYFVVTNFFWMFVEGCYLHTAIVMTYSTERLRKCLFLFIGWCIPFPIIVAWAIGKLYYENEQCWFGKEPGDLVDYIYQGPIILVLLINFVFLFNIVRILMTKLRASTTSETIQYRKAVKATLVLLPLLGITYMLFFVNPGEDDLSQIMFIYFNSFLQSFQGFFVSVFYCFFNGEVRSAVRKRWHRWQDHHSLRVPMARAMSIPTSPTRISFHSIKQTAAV
# assay: cell-based or functional assay
Ends that are not written are not given here.
measuredProperty: CRF2R EC50 (nM)
Numbers only; they are read as nM.

1. ZGPPISIDLPTYLLRKMIEIEKQEKEKQQAANNALLLATI (C-terminal amide) [SEQ ID NO 233]    46.1
2. ZGPPISIDLPFQLLRKIIEIEKQEKEKQQAANNALLLATI (C-terminal amide) [SEQ ID NO 362]    4.39
3. ZGPPISIDVPFQLLRKVIEIEKQEKEKQQAANNARLLARI (C-terminal amide) [SEQ ID NO 383]    9.31
4. ZGPPISIDLSLELLRKMIEIEKQEKEKQQAANNRLLLDTI (C-terminal amide) [SEQ ID NO 355]    6.03
5. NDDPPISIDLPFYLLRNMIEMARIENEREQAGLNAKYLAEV-NH2 [SEQ ID NO 261]    100

Query: CRF2R EC50; subject: IVLSLDVPIGLLQKMIEIEKQEKEKQQATTNARILARV-NH2 [SEQ ID NO 322]
23.1

Param item = ZGPPISIDLPLYLLRKMIEIEKQEKEKQQAANNALLLDTI (C-terminal amide) [SEQ ID NO 244] ; retrieve measured CRF2R EC50.
8.8

Quick one: CRF2R EC50 of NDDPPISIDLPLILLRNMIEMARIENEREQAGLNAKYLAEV-NH2 [SEQ ID NO 269] ?
100

Look at this binder and give its reported CRF2R EC50. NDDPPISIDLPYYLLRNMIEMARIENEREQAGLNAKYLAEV-NH2 [SEQ ID NO 267]
100

Dear colleague, I am looking for the recorded CRF2R EC50 of the following binder: ZGPPISIDLPFQLLRKTIEIEKQEKEKQQATTNARLLDRV (C-terminal amide) [SEQ ID NO 321]
19.6

# get_value(readout='CRF2R EC50', item= IVLSLDVPIGLLQILLEQARHAHAHAHAHAQAHILAHV-NH2 [SEQ ID NO 369] )
100

I would be grateful if you could share the reported CRF2R EC50 for ZGPPISIDLPYYLLRKMIEIEKQEKEKQQAANNALLLATI (C-terminal amide) [SEQ ID NO 225] .
4.8

Consider the binder shown here: ZGPPISIDLPLQLLRKVIEIEKQEKEKQQAANNALLLATI (C-terminal amide) [SEQ ID NO 349] What is its recorded CRF2R EC50?
13.8

# CRF2R EC50 lookup, item ZGPPISIDLPYWLLRKMIEIEKQEKEKQQAANNRLLLDTI (C-terminal amide) [SEQ ID NO 215]
4

Each recorded value in this set is attributed to patent US20030148956A1.
